- assay.target: Protein cereblon/Son of sevenless homolog 1 (Homo sapiens, UniProt Q07889+Q96SW2)
- Sequence (Q07889 whole entry, looked up): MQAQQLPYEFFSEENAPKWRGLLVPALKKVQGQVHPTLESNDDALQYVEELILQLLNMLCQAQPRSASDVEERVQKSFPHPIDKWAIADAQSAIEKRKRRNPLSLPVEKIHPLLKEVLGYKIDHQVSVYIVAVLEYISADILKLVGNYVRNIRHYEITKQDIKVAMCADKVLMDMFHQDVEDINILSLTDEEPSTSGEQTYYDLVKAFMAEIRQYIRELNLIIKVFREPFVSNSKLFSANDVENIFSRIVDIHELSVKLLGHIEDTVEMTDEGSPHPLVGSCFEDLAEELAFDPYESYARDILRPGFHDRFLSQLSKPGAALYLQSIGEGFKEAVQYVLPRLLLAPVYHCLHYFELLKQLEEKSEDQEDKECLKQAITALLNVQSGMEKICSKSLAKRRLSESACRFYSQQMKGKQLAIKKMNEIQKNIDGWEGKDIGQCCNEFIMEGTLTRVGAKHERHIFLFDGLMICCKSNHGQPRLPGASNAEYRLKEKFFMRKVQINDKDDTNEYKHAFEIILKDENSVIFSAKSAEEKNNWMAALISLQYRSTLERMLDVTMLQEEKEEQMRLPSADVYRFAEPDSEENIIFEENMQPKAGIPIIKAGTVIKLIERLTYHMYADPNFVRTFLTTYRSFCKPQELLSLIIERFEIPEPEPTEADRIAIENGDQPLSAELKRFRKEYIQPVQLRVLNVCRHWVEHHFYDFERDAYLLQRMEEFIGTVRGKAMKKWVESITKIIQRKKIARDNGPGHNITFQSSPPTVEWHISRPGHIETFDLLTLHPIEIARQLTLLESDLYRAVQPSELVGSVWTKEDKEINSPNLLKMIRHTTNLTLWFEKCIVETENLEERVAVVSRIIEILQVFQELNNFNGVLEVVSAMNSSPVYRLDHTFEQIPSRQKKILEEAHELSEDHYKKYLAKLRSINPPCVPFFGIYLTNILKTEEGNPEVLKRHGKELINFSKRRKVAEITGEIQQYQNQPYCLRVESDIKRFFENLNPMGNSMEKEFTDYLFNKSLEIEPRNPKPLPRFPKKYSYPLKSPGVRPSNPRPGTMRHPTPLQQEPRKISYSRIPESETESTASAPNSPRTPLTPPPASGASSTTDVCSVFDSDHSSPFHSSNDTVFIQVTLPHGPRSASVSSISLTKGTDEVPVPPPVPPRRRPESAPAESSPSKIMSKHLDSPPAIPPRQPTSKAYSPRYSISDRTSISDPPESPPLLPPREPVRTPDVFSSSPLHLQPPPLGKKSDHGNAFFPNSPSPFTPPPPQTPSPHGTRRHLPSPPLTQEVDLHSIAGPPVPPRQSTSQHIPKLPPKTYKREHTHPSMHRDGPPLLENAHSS
- Sequence (Q96SW2 whole entry, looked up): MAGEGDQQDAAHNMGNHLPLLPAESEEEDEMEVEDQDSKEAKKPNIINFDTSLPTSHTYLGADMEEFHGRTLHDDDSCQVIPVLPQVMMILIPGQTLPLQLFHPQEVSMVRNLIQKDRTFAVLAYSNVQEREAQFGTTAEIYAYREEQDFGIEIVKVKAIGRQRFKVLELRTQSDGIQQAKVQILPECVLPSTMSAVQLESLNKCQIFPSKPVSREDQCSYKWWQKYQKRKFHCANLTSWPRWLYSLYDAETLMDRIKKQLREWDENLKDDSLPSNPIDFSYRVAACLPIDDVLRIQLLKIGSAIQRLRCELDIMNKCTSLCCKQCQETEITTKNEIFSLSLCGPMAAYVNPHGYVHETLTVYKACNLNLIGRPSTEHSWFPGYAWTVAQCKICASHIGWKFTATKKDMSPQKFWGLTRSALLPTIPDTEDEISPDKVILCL
- protocol.details: PROTAC activity at CRBN/SOS1 in human A549 cells assessed as protein degradation at 0.1 uM incubated for 24 hrs by immunoblot analysis relative to control
- Type: cell-based
Each record here notes measured Activity.
Enter your answer as a number in %; do not include the unit.

Solved entries (count: 5):
molecule="COc1cc2nc(C)nc(N[C@H](C)c3cc(N)cc(C(F)(F)F)c3)c2cc1O[C@H]1CCN(C(=O)CCCCC(=O)Nc2cccc3c2C(=O)N(C2CCC(=O)NC2=O)C3)C1 (some centres not stated)" attribute_measured=Activity unit_info=% reading=5.6
molecule="COc1cc2nc(C)nc(N[C@H](C)c3cc(N)cc(C(F)(F)F)c3)c2cc1O[C@H]1CCN(C(=O)CCCCCCCC(=O)Nc2cccc3c2CN(C2CCC(=O)NC2=O)C3=O)C1 (some centres not stated)" attribute_measured=Activity unit_info=% reading=68
molecule="COc1cc2nc(C)nc(N[C@H](C)c3cc(N)cc(C(F)(F)F)c3)c2cc1O[C@H]1CCN(C(=O)CCCCC(=O)Nc2cccc3c2CN(C2CCC(=O)NC2=O)C3=O)C1 (some centres not stated)" attribute_measured=Activity unit_info=% reading=1.8
molecule="COc1cc2nc(C)nc(N[C@H](C)c3cc(N)cc(C(F)(F)F)c3)c2cc1O[C@H]1CCN(C(=O)CCCCCCC(=O)Nc2cccc3c2CN(C2CCC(=O)NC2=O)C3=O)C1 (some centres not stated)" attribute_measured=Activity unit_info=% reading=2.1
molecule="COc1cc2nc(C)nc(N[C@H](C)c3cc(N)cc(C(F)(F)F)c3)c2cc1O[C@H]1CCN(C(=O)CCCCCCC(=O)Nc2ccc3c(c2)C(=O)N(C2CCC(=O)NC2=O)C3)C1 (some centres not stated)" attribute_measured=Activity unit_info=% reading=7.9

Param readout= Activity; system= Protein cereblon/Son of sevenless homolog 1 (Homo sapiens, UniProt Q07889+Q96SW2); entry= COc1cc2nc(C)nc(N[C@H](C)c3cc(N)cc(C(F)(F)F)c3)c2cc1O[C@H]1CCN(C(=O)CCC(=O)Nc2ccc3c(c2)C(=O)N(C2CCC(=O)NC2=O)C3)C1 (some centres not stated) ; returns value. 13.7

Thanks! And COc1cc2nc(C)nc(N[C@H](C)c3cc(N)cc(C(F)(F)F)c3)c2cc1O[C@H]1CCN(C(=O)CNc2ccc3c(c2)C(=O)N(C2CCC(=O)NC2=O)C3=O)C1 (some centres not stated) ? 0

====

Activity listing for selected compounds.
- assay.target: Protein cereblon/Son of sevenless homolog 1 (Homo sapiens, UniProt Q07889+Q96SW2)
- protocol.details: PROTAC activity at CRBN/SOS1 in human A549 cells assessed as protein degradation at 1 uM incubated for 24 hrs by immunoblot analysis relative to control
- Assay type: cell-based
Note to self: number, then unit, no commentary.

Here are 4 compounds together with their reported answers.
compound="COc1cc2nc(C)nc(N[C@H](C)c3cc(N)cc(C(F)(F)F)c3)c2cc1O[C@H]1CCN(C(=O)CCCCCCCCCNc2ccc3c(c2)C(=O)N(C2CCC(=O)NC2=O)C3=O)C1 (stereo not given in full)" assay_target="Protein cereblon/Son of sevenless homolog 1 (Homo sapiens, UniProt Q07889+Q96SW2)" reading=0%
compound="COc1cc2nc(C)nc(N[C@H](C)c3cc(N)cc(C(F)(F)F)c3)c2cc1O[C@H]1CCN(C(=O)CCCCCCC(=O)Nc2ccc3c(c2)CN(C2CCC(=O)NC2=O)C3=O)C1 (stereo not given in full)" assay_target="Protein cereblon/Son of sevenless homolog 1 (Homo sapiens, UniProt Q07889+Q96SW2)" reading=57.7%
compound="COc1cc2nc(C)nc(N[C@H](C)c3cc(N)cc(C(F)(F)F)c3)c2cc1O[C@H]1CCN(C(=O)CCCCCCCCC(=O)Nc2cccc3c2C(=O)N(C2CCC(=O)NC2=O)C3)C1 (stereo not given in full)" assay_target="Protein cereblon/Son of sevenless homolog 1 (Homo sapiens, UniProt Q07889+Q96SW2)" reading=6.7%
compound="COc1cc2nc(C)nc(N[C@H](C)c3cc(N)cc(C(F)(F)F)c3)c2cc1O[C@H]1CCN(C(=O)CCCCCCC(=O)Nc2cccc3c2CN(C2CCC(=O)NC2=O)C3=O)C1 (stereo not given in full)" assay_target="Protein cereblon/Son of sevenless homolog 1 (Homo sapiens, UniProt Q07889+Q96SW2)" reading=31.9%

Quick one: Activity of COc1cc2nc(C)nc(N[C@H](C)c3cc(N)cc(C(F)(F)F)c3)c2cc1O[C@H]1CCN(C(=O)CCCCCCCNc2cccc3c2C(=O)N(C2CCC(=O)NC2=O)C3=O)C1 (stereo not given in full) ? 13%
